- target: Platelet-activating factor acetylhydrolase IB subunit alpha1 (Homo sapiens)
- assayProcedure: PAFAH1B3 enzyme inhibitors, primary screen, biochemical, fluorescence polarization, human (AID 492972)
- runParameters: recombinant PAFAH1B3, FP-rhodamine probe, at 3.39 µM
Out of some 340,000 compounds screened, about 930 (0.27%) were called active.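 How the source made its calls: active means inhibition above the screen-wide average of all tested compounds plus 3 SD (cut at about 25% in these data); inactive means the rest.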 Many of the other results were omitted from the sample, so actives are more common in it than they were.
Labels: active, inactive

compound	className
CCOC(=O)CNC(=O)CSc1ncccc1-c1nc2ccccc2[nH]1	inactive
COc1cccc(N(CC(=O)NCCSc2ccccn2)S(C)(=O)=O)c1	inactive
CNC(=S)N/N=C/c1cn(Cc2ccc(C)cc2)c2ccccc12	inactive
COc1ccc(C(C)=O)cc1COC(=O)Cn1cnc2ccccc2c1=O	inactive
COc1ccc(C(=O)NC(=S)N2CCCCC2c2cccnc2)cc1OC (stereo unspecified)	inactive
N#Cc1ccc(S(=O)(=O)NCC(=O)OCC(=O)NCCc2ccccc2)cc1	inactive
O=C(Nc1ccccc1Cl)N1CCN(c2ccc3nncn3n2)CC1	inactive
O=C(Oc1cccc(N2C(=O)C3C4c5ccccc5C(c5ccccc54)C3C2=O)c1)c1ccco1 (stereo unspecified)	inactive
Cc1cccnc1CCNC(=O)C1CCC(=O)N(Cc2cccc(F)c2)C1 (stereo unspecified)	inactive
CC(C)N(C)C(=O)CCc1nnc(CCc2c[nH]c3ccccc23)o1	inactive
COc1cccc(Cn2cc(/C=N/NC(=O)c3cc(O)cc(O)c3)c3ccccc32)c1	active
